assay-method-text: Powder characteristics (Carr index, anti-caking property, fluidity) by intelligent powder comprehensive characteristic tester
Type: physicochemical
experimental-parameters: solid form of compound 1; smaller value = better fluidity, more than 23% generally indicates poor fluidity
metric: Carr index (%)

Worked cases, answers included:
compound	Carr index (%)
Cn1cnc(Cn2c(=O)[nH]/c(=N\c3cc4cn(C)nc4cc3Cl)n(Cc3cc(F)c(F)cc3F)c2=O)n1 [Example 3]	18.7
Cn1cnc(Cn2c(=O)[nH]/c(=N\c3cc4cn(C)nc4cc3Cl)n(Cc3cc(F)c(F)cc3F)c2=O)n1 [Example 10]	13.4

a: Cn1cnc(Cn2c(=O)[nH]/c(=N\c3cc4cn(C)nc4cc3Cl)n(Cc3cc(F)c(F)cc3F)c2=O)n1 [Example 2]
b: Cn1cnc(Cn2c(=O)[nH]/c(=N\c3cc4cn(C)nc4cc3Cl)n(Cc3cc(F)c(F)cc3F)c2=O)n1 [Example 11]
// pick min by Carr index (%): a , b Give the label of your selection. b
(b: 14.1%, a: 20.7%)

----------
assay-method-text: Powder characteristics (Carr index, anti-caking property, fluidity) by intelligent powder comprehensive characteristic tester
Type: physicochemical
Parameters: key: Good: “good” means substantially no agglomeration or clumping; Less good: “less good” means partial clumping or agglomeration; Poor: “poor” means severe or complete clumping
experimental-parameters: solid form of compound 1
metric: Anti-caking property

Example cases with answers are listed next.
compound	observed
Cn1cnc(Cn2c(=O)[nH]/c(=N\c3cc4cn(C)nc4cc3Cl)n(Cc3cc(F)c(F)cc3F)c2=O)n1 [Example 6]	Less good
Cn1cnc(Cn2c(=O)[nH]/c(=N\c3cc4cn(C)nc4cc3Cl)n(Cc3cc(F)c(F)cc3F)c2=O)n1 [Comparative Example 1, reference compound]	Poor
Cn1cnc(Cn2c(=O)[nH]/c(=N\c3cc4cn(C)nc4cc3Cl)n(Cc3cc(F)c(F)cc3F)c2=O)n1 [Example 7]	Less good
Cn1cnc(Cn2c(=O)[nH]/c(=N\c3cc4cn(C)nc4cc3Cl)n(Cc3cc(F)c(F)cc3F)c2=O)n1 [Example 10]	Good
Cn1cnc(Cn2c(=O)[nH]/c(=N\c3cc4cn(C)nc4cc3Cl)n(Cc3cc(F)c(F)cc3F)c2=O)n1 [Comparative Example 2, reference compound]	Poor

What Anti-caking property value was documented for this compound, Cn1cnc(Cn2c(=O)[nH]/c(=N\c3cc4cn(C)nc4cc3Cl)n(Cc3cc(F)c(F)cc3F)c2=O)n1 [Example 5] ? Less good

Consider the compound Cn1cnc(Cn2c(=O)[nH]/c(=N\c3cc4cn(C)nc4cc3Cl)n(Cc3cc(F)c(F)cc3F)c2=O)n1 [Example 11] and give its measured Anti-caking property. Good

Anti-caking property lookup needed for Cn1cnc(Cn2c(=O)[nH]/c(=N\c3cc4cn(C)nc4cc3Cl)n(Cc3cc(F)c(F)cc3F)c2=O)n1 [Example 12] , thanks. Good

I would be grateful if you could share the reported Anti-caking property for Cn1cnc(Cn2c(=O)[nH]/c(=N\c3cc4cn(C)nc4cc3Cl)n(Cc3cc(F)c(F)cc3F)c2=O)n1 [Example 3] . Less good

Need Anti-caking property, item Cn1cnc(Cn2c(=O)[nH]/c(=N\c3cc4cn(C)nc4cc3Cl)n(Cc3cc(F)c(F)cc3F)c2=O)n1 [Example 4] Less good

// lookup Anti-caking property for Cn1cnc(Cn2c(=O)[nH]/c(=N\c3cc4cn(C)nc4cc3Cl)n(Cc3cc(F)c(F)cc3F)c2=O)n1 [Example 2] Less good

# lookup: Anti-caking property of Cn1cnc(Cn2c(=O)[nH]/c(=N\c3cc4cn(C)nc4cc3Cl)n(Cc3cc(F)c(F)cc3F)c2=O)n1 [Example 8] Less good

Anti-caking property for Cn1cnc(Cn2c(=O)[nH]/c(=N\c3cc4cn(C)nc4cc3Cl)n(Cc3cc(F)c(F)cc3F)c2=O)n1 [Example 9] ? Good

Name the reported Anti-caking property value associated with the compound Cn1cnc(Cn2c(=O)[nH]/c(=N\c3cc4cn(C)nc4cc3Cl)n(Cc3cc(F)c(F)cc3F)c2=O)n1 [Example 1] Less good
